Test: reversal of MRP1-mediated doxorubicin resistance, pilot screen, H69AR cells, doxorubicin co-treatment (AID 601)
Conditions: H69AR cells + 2 uM doxorubicin, CellTiter-Glo, 72 h; at 10 µM; stronger effect = higher value
value kind: differential viability (reversal) (%)
Your answer should be a plain number; it is taken to be in %.

[[record]]
compound = "CCOc1ccc2cc(C#N)c(SCC(=O)N3CCCC3)nc2c1"
number = 11.5


Query: Suppose we examine the compound Cc1cc(C(=O)OCCO)c(C#N)c(N)n1 ; what differential viability (reversal) value has been reported?
Reply: -5.51

Query: Suppose we examine the compound CSCCC(NC(=O)c1occc1C)C(=O)O (stereo not drawn) ; what differential viability (reversal) value has been reported?
Reply: 12.8

Query: Suppose we examine the compound Cc1ccnc(SCCn2c(N3CCCCC3)nc3c2c(=O)n(C)c(=O)n3C)n1 ; what differential viability (reversal) value has been reported?
Reply: 3

Query: Suppose we examine the compound O=C(Nc1cccc(C(F)(F)F)c1)c1ccco1 ; what differential viability (reversal) value has been reported?
Reply: 19.4

Query: Suppose we examine the compound CCOC(=O)C(C)On1c(SC(C)C(=O)OCC)nc2ccccc2c1=O (stereo not drawn) ; what differential viability (reversal) value has been reported?
Reply: -19.7

Query: Suppose we examine the compound COc1ccc(C)cc1S(=O)(=O)N(C)CC(=O)Nc1ccc2c(c1)OCCO2 ; what differential viability (reversal) value has been reported?
Reply: 5.96

Query: Suppose we examine the compound COC(=O)c1c(-c2cccs2)csc1NC(=O)CN1CCOCC1 ; what differential viability (reversal) value has been reported?
Reply: 0.685

Query: Suppose we examine the compound CCC(C)NC(=O)C1CCCN(S(=O)(=O)c2ccc(-n3cnnn3)cc2)C1 (stereo not drawn) ; what differential viability (reversal) value has been reported?
Reply: 14.5

###

Assay: reversal of MRP1-mediated doxorubicin resistance, pilot screen, H69AR cells, doxorubicin co-treatment (AID 601)
Conditions: H69AR cells + 2 uM doxorubicin, CellTiter-Glo, 72 h; at 10 µM; stronger effect = higher value
value kind: differential viability (reversal) (%)
Your answer should be a plain number; it is taken to be in %.

The following molecules have reported results that may help.
[[record]]
molecule = "CCc1cccc2c(=O)c(C(=O)N3CCCCCC3)c[nH]c12"
number = 1.41

[[record]]
molecule = "CC(CN1CCN(C)CC1)OC(=O)c1ccc(Cl)cc1Cl (centres undefined)"
number = 14

[[record]]
molecule = "COC(=O)c1cc(NC(=O)C2CC=CCC2C(=O)O)cc(C(=O)OC)c1 (centres undefined)"
number = 15.8

[[record]]
molecule = "O=C(COC(=O)CCC(=O)c1cccs1)NCc1ccco1"
number = 2.55

[[record]]
molecule = "CCC(=O)N[C@@H]1CC(C(C)(C)NC(=O)CC)CC=C1C (some centres undefined)"
number = -1


Query: Suppose we examine the molecule Cn1ccnc1SCCC#N ; what differential viability (reversal) value has been reported?
Reply: 1.65

Query: Suppose we examine the molecule Nc1nonc1NC(=O)CSc1nc2ccccc2s1 ; what differential viability (reversal) value has been reported?
Reply: 4.11

###

Target: Receptor tyrosine-protein kinase erbB-2 (Homo sapiens) (UniProt P04626)
Sequence (P04626 whole entry, looked up): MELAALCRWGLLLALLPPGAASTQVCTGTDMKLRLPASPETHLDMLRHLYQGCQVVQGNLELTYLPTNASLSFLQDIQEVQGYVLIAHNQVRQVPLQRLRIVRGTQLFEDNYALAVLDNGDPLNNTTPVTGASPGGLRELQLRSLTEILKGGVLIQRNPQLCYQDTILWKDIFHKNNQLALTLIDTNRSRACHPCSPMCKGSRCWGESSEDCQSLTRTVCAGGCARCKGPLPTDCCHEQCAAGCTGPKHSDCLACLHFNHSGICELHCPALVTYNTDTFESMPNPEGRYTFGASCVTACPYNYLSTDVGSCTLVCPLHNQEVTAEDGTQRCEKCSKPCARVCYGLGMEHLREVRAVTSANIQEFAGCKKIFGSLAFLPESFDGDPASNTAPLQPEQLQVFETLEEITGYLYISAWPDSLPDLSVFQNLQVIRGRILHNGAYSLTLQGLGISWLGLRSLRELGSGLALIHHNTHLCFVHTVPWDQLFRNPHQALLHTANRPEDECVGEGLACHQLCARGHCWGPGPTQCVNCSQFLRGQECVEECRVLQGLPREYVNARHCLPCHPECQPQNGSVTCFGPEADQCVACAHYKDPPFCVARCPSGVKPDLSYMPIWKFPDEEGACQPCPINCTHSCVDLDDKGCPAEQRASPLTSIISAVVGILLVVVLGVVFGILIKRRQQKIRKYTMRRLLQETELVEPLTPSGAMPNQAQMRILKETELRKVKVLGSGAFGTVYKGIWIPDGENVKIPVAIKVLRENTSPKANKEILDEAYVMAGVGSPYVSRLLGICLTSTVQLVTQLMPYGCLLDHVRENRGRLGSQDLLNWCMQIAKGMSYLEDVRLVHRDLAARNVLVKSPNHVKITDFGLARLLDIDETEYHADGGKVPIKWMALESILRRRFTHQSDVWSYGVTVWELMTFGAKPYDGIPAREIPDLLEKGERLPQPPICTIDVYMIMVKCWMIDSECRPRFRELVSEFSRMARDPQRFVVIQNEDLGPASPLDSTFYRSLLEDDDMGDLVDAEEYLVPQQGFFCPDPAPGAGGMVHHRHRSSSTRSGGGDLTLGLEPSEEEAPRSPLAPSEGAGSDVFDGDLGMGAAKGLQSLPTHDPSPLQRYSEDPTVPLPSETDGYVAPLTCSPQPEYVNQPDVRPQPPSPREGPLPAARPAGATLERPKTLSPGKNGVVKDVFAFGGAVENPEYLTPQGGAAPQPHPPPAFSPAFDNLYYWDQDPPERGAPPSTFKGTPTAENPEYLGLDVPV
Test: reducers of endogenous Her2 protein level, primary screen, SKBR3 breast tumor cells, AlphaScreen, ATP viability (AID 461);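 for viability: percent of carrier control wells set as 100% viability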
Settings: 18-24 h, at 10 µM
Activity calls are given as the source filed them.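 How the source made its calls: active means Her2 level under about 52% in both replicate screens, with viability over 70% of control (limit read from the data); inconclusive means Her2 under the limit in one screen only, or viability under 70%; inactive means Her2 level above the set limit.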
Lab note: assign the record to one of active, inactive

Query: Fill in: this test's call for Cc1sc(NC(=O)CSc2nc(N)n(CC(=O)c3ccccc3)n2)c(C#N)c1C is ___
Reply: inactive

Query: Fill in: this test's call for COc1ccc(C(CNC(=O)c2cc(C)oc2C)N2CCOCC2)cc1 (stereo not drawn) is ___
Reply: inactive

Query: Fill in: this test's call for Cc1nc2c(=O)oc3ccccc3c2n1-c1ccccc1 is ___
Reply: inactive

Query: Fill in: this test's call for COc1ccccc1N1CCN(CCCNC(=O)Nc2ccccc2)CC1 is ___
Reply: inactive

Query: Fill in: this test's call for CCn1cc(C(=O)Nc2cc3c(cc2NC(C)=O)OCCO3)c(=O)c2ccc(C)nc21 is ___
Reply: inactive

###

Assay: reducers of endogenous Her2 protein level, primary screen, SKBR3 breast tumor cells, AlphaScreen, ATP viability (AID 461);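 for viability: percent of carrier control wells set as 100% viability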
Settings: 18-24 h, measured here: SKBR3 viability, ATP luminescence, at 10 µM
value kind: viability (%)
Your answer should be a plain number; it is taken to be in %.

The following compounds have reported results that may help.
[[record]]
compound = "COc1ccc(-c2c(C(F)(F)F)oc3c(CN4CCN(C)CC4)c(O)ccc3c2=O)cc1"
number = 84.5

[[record]]
compound = "COc1cccc(-c2nnc3sc(-c4ccc(C)cc4)nn23)c1"
number = 103

[[record]]
compound = "COc1ccc(C(c2nnnn2C2CCCC2)N2CCN(C3CCCC3)CC2)cc1OC (stereo unspecified)"
number = 89.5

[[record]]
compound = "COc1ccccc1OCc1ccc(C(=O)NC(C)(C)C)o1"
number = 83

[[record]]
compound = "CCOc1cccc(C(=O)Nc2cccc(-c3nc4ncccc4o3)c2C)c1"
number = 99

[[record]]
compound = "CC(C)CC(=O)CN1C(=O)C2(OCCO2)c2ccccc21"
number = 93.5

[[record]]
compound = "Cc1nc(NS(=O)(=O)c2ccccc2)sc1NC(=O)OC(C)C"
number = 97

[[record]]
compound = "Cc1ccc(OC(=O)NC2CCS(=O)(=O)C2)cc1C (stereo unspecified)"
number = 108

[[record]]
compound = "C=CCOC(=O)CCC(=O)Nc1cc(OC)nc(OC)n1"
number = 112

[[record]]
compound = "O=C(OCn1nnc2ccccc2c1=O)C1CCN(S(=O)(=O)c2cccs2)CC1"
number = 97


Query: Suppose we examine the compound CCc1ccc(NS(=O)(=O)c2cccs2)cc1 ; what viability value has been reported?
Reply: 97.5

###

Assay: growth inhibitors of H69AR lung tumor, primary screen, human, duplicate replicates (AID 580);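 note: 100% = mean luminescence of untreated wells and 0% = no signal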
Conditions: H69AR lung tumor cells viability, ATP luminescence, 72 h; at 10 µM; stronger effect = lower value
value kind: viability (%)
Your answer should be a plain number; it is taken to be in %.

The following molecules have reported results that may help.
[[record]]
molecule = "COc1ccc(OC)c(NC(=O)CS(=O)(=O)Cc2nc(-c3ccccc3C)oc2C)c1"
number = 94.4

[[record]]
molecule = "CCCc1nnc(SCC(=O)N2CCOCC2)n1Cc1ccco1"
number = 96.9

[[record]]
molecule = "CCCCn1c(SCC(=O)N2CC(=O)Nc3ccccc32)nnc1-c1ccoc1C"
number = 96.7

[[record]]
molecule = "CC(=O)NS(=O)(=O)c1ccc(NC(=O)c2ccccc2F)cc1"
number = 99.4

[[record]]
molecule = "CCOc1ccccc1N1CCN(c2nc(N)c(C#N)c(CC#N)c2C#N)CC1"
number = 61.7

[[record]]
molecule = "CCN(CCNC(=O)C1CCN(S(C)(=O)=O)CC1)c1ccccc1"
number = 88.2


Query: Suppose we examine the molecule CC1(C)CNC(=O)c2sc(N3CCOCC3)nc2C1 ; what viability value has been reported?
Reply: 77.3

Query: Suppose we examine the molecule Cc1nnc(SCc2cc(=O)[nH]c(N3CCCCC3)n2)s1 ; what viability value has been reported?
Reply: 94.1

Query: Suppose we examine the molecule COc1ccc(CCNC(=O)CSc2nncn2N)cc1OC ; what viability value has been reported?
Reply: 96.4

Query: Suppose we examine the molecule COc1ccc(-c2c(C(F)(F)F)oc3c(CN4CCN(C)CC4)c(O)ccc3c2=O)cc1 ; what viability value has been reported?
Reply: 102

Query: Suppose we examine the molecule O=c1c(CN2CCN(Cc3ccccc3)CC2)coc2ccc(Cl)cc12 ; what viability value has been reported?
Reply: 95.7

Query: Suppose we examine the molecule CCOc1ccc(C2/C(=C(/O)c3ccc(OC)cc3)C(=O)C(=O)N2c2cc(C)on2)cc1OC (configuration not stated) ; what viability value has been reported?
Reply: 89.4

###

Overview of reported Her2 level across a group of compounds:
Molecular target: Receptor tyrosine-protein kinase erbB-2 (Homo sapiens) (UniProt P04626)
Test: reducers of endogenous Her2 protein level, primary screen, SKBR3 breast tumor cells, AlphaScreen, ATP viability (AID 461);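 for Her2 level: lower value means less Her2 protein in the cells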;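 for viability: percent of carrier control wells set as 100% viability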
Conditions: 18-24 h, at 10 µM, stronger effect = lower value
Your answer should be a plain number; it is taken to be in %.

Query: Suppose we examine the compound COC(=O)c1ccccc1NC(=O)CSc1nc2c(c(=O)n(C)c(=O)n2C)n1C ; what Her2 level value has been reported?
Reply: 124

Query: Suppose we examine the compound C=CCc1cc(C(=O)N2CCCCC2)ccc1O ; what Her2 level value has been reported?
Reply: 100

###

Overview of reported viability across a group of molecules:
Experiment: HUVEC growth inhibition – cell-based, human, primary screen (AID 575);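 note: 100% = median of untreated cell wells with 0.1% DMSO on each plate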
Conditions: HUVEC proliferation, CellTiter-Glo luminescence, 72 h; at 10 µM; stronger effect = lower value
Your answer should be a plain number; it is taken to be in %.

The following molecules have reported results that may help.
[[record]]
molecule = "O=C1C2CCCN2C(c2ccc(Cl)cc2)N1c1nccs1 (stereo unspecified)"
value_kind = "viability"
number = 86.5

[[record]]
molecule = "CC(C)(C)NC(=O)Cn1nnc(-c2cccs2)n1"
value_kind = "viability"
number = 101

[[record]]
molecule = "CCCc1[nH]nc2c1C(c1cccc(OC(=O)c3ccco3)c1)C(C#N)=C(N)O2 (stereo unspecified)"
value_kind = "viability"
number = 81.6

[[record]]
molecule = "CC(NC(=O)c1ccco1)C(c1cccs1)N1CCN(c2ccc(F)cc2)CC1 (stereo unspecified)"
value_kind = "viability"
number = 67.9

[[record]]
molecule = "COC(=O)c1cccc(NC(=O)Cc2coc3cc(OC)ccc23)c1"
value_kind = "viability"
number = 87.1

[[record]]
molecule = "CC(Oc1ccc(Cl)cc1Cl)C(=O)Nc1ncccn1 (stereo unspecified)"
value_kind = "viability"
number = 99.6

[[record]]
molecule = "COc1ccccc1N1CCN(Cc2nnnn2CCc2ccccc2)CC1"
value_kind = "viability"
number = 91.5

[[record]]
molecule = "CCC(c1nnc(SCC(=O)NCC2CCCO2)n1Cc1ccccc1)N(C)C (stereo unspecified)"
value_kind = "viability"
number = 96.8

[[record]]
molecule = "CCOC(=O)N1CCC(NC(=O)c2ccc3c(c2)N(C)CCS3)CC1"
value_kind = "viability"
number = 109

[[record]]
molecule = "CC(C)C(=O)Nc1ccc2c(c1)nc1n2CCSC1"
value_kind = "viability"
number = 111


Query: Suppose we examine the molecule c1ccc(-n2c(Sc3cnccn3)nnc2-c2cccs2)cc1 ; what viability value has been reported?
Reply: 89.1
